Test system: brown planthopper (Nilaparvata lugens)
experiment_description: Nilaparvata lugens spray test
Type: in vivo
experimental_conditions: 96 h, 500 g/ha, rice plants, after 4 days
quantity_kind: mortality at 500 g/ha (%)
Write the number in % without appending the unit.

Item under review: `CCN(C)C(=O)c1cnc(-c2nccnc2[C@H](C)NC(=O)c2cc(C(F)(F)F)cc(C(F)(F)F)c2)s1` . Reported mortality at 500 g/ha?
100

Next entry: CC(NC(=O)c1cc(Br)cc(OC(F)(F)F)c1)c1nccnc1-n1cc(C(=O)N(C)CC2CC2)cn1 (racemic)
100

Next entry: CC(NC(=O)c1cc(Cl)cc(C(F)(F)F)c1)c1nccnc1-n1cc(C(=O)N(C)CC2CC2)cn1 (racemic)
100

More entries:
Item under review: CC(NC(=O)c1cc(C(F)F)cc(C(F)F)c1)c1nccnc1-c1ncc(C(=O)N(C)CC2CC2)s1 (racemic) . Reported mortality at 500 g/ha?
100

Next entry: CCN(C)C(=O)c1cnc(-c2nccnc2C(C)N(CC2CC2)C(=O)c2cc(C(F)(F)F)cc(C(F)(F)F)c2)s1 (racemic)
100

Next entry: CC(NC(=O)c1cc(OC(F)(F)F)cc(S(C)(=O)=O)c1)c1nccnc1-c1ncc(C(=O)N(C)CC2CC2)s1 (racemic)
100

* * *

Test system: adult cat fleas (Ctenocephalides felis)
experiment_description: Ctenocephalides felis in-vitro contact test, adult cat flea
Type: in vivo
experimental_conditions: 5 μg/cm^2 (=500 g/ha), after 48 hours, read-out: efficacy (fleas dead or moribund)
quantity_kind: pest or weed control at 5 µg/cm2, 500 g/ha (%)
Write the number in % without appending the unit.

Use the examples below as a reference point.
Item under review: CC(NC(=O)c1cc(C(F)(F)F)cc(C(F)(F)F)c1)c1nccnc1-c1ncc(C(=O)N2CCCCC2)s1 (racemic) [Example I-64] . Reported pest or weed control at 5 µg/cm2, 500 g/ha?
100

Next entry: CCNC(=O)c1ccc(-c2nccnc2C(C)NC(=O)c2cc(C(F)(F)F)cc(C(F)(F)F)c2)nc1 (racemic) [Example I-35]
100

Next entry: COc1ccc(-c2nccnc2C(C)NC(=O)c2cc(Br)cc(OC(F)(F)F)c2)nc1 (stereo not shown) [Example I-27]
80

Next entry: CC(NC(=O)c1cc(C(F)F)cc(C(F)F)c1)c1nccnc1-c1ncc(C(=O)N(C)CC2CC2)s1 (racemic) [Example I-141]
100

Next entry: CC(NC(=O)c1cc(Cl)cc(C(F)(F)F)c1)c1nccnc1-n1cc(C(=O)N(C)CC2CC2)cn1 (racemic) [Example I-132]
100

Next entry: CC(NC(=O)c1cc(Cl)cc(Br)c1)c1nccnc1-c1ccc(Cl)cn1 (stereo not shown) [Example I-19]
80

Now for a further molecule.
Item under review: CC(NC(=O)c1cc(Br)cc(C(F)(F)F)c1)c1nccnc1-c1ncc(C(=O)N(C)C)s1 (racemic) [Example I-118] . Reported pest or weed control at 5 µg/cm2, 500 g/ha?
90

* * *

Tested on: larvae of the southern green stink bug (Nezara viridula)
experiment_description: Nezara viridula spray test
Format: in vivo
experimental_conditions: 96 h, 500 g/ha, barley plants, after 4 days
quantity_kind: mortality at 500 g/ha (%)
Write the number in % without appending the unit.

Item: CC(NC(=O)c1cc(C(F)(F)F)cc(C(F)(F)F)c1)c1nccnc1-n1cc(C(=O)N(C)CC2CC2)cn1 (racemic) Test system: larvae of the southern green stink bug (Nezara viridula) Read-out: mortality at 500 g/ha Value: ?
100

Next entry: CC(NC(=O)c1cc(Cl)cc(OC(F)(F)F)c1)c1nccnc1-n1cc(C(=O)N(C)CC2CC2)cn1 (racemic)
100

Next entry: CCN(C)C(=O)c1cnc(-c2nccnc2C(C)N(CC2CC2)C(=O)c2cc(C(F)(F)F)cc(C(F)(F)F)c2)s1 (racemic)
100

Next entry: CC(NC(=O)c1cc(Cl)cc(S(C)(=O)=O)c1)c1nccnc1-n1cc(C(F)(F)F)cn1 (racemic)
100

More entries:
Item: CC(NC(=O)c1cc(Cl)cc(S(C)(=O)=O)c1)c1nccnc1-n1cc(Cl)cn1 (racemic) Test system: larvae of the southern green stink bug (Nezara viridula) Read-out: mortality at 500 g/ha Value: ?
100

Next entry: CC(NC(=O)c1cc(C(F)F)cc(C(F)F)c1)c1nccnc1-c1ncc(C(=O)N(C)CC2CC2)s1 (racemic)
100
